Consider the following molecules and their measured percent growth readings.
tested on: Streptococcus suis P1/7; assay: percent growth relative to DMSO control; higher = less growth inhibition; conditions: 10 µM; incubation time 18 h

MOLECULE: O=C(NC1=NCCS1)c1sc2cc(F)ccc2c1Cl
percent growth (%): 88.6

MOLECULE: c1ccc(Oc2ccc(-c3cc(N4CCNCC4)[nH]n3)cc2)cc1
percent growth (%): 67.6

MOLECULE: Brc1c(-c2ccc3c(c2)OCO3)nc2ncccn12
percent growth (%): 85.8

MOLECULE: CNC(=O)C1Cc2ccccc2N1C(=O)Cc1ccc(F)cc1 (stereo not given)
percent growth (%): 94.5

MOLECULE: CN(C(=O)c1cc2c(-c3cncnc3)cccc2[nH]1)c1ccccc1
percent growth (%): 72.2

MOLECULE: O=C(Nc1cccnc1)c1c(O)c2cccc3c2n(c1=O)CC3
percent growth (%): 89.7

MOLECULE: Cc1nc2ccccn2c1C(=O)NCc1ccc(Cl)cc1
percent growth (%): 133

MOLECULE: CCCCS(=O)(=O)Nc1ccc2cnn(C)c2c1
percent growth (%): 73

MOLECULE: O=C(Nc1ccccc1)c1ccc(-c2cc3ccncc3cc2OC2CCNCC2)s1
percent growth (%): 72.3

MOLECULE: CC(=O)N1CCN(c2ccc(Oc3ccc(Cl)cc3O)cc2)CC1
percent growth (%): 95.7

MOLECULE: COc1ccc(C(=N)N)cc1-c1cn(-c2ccc(C(=N)N)cc2)nn1
percent growth (%): 75.7

MOLECULE: CCc1ccccc1-n1c(C)cn2c3c(=O)n(C(C(=O)OC)C(C)C)c(=O)n(C)c3nc12 (stereo not given)
percent growth (%): 101

MOLECULE: CC1COC2(CCN(c3nc(=O)c4cc(C(F)(F)F)cc([N+](=O)[O-])c4s3)CC2)O1 (stereo not given)
percent growth (%): 81.2

MOLECULE: CC(=O)Oc1ccccc1C(=O)Nc1ncc([N+](=O)[O-])s1
percent growth (%): 35.5

MOLECULE: CC(C)(C)n1nc(-c2ccccc2)c2c(N)ncnc21
percent growth (%): 84.5

MOLECULE: CCCCN(CCCC)c1c(C#N)cc(S(=O)(=O)Nc2ccccc2)cc1C#N
percent growth (%): 69.8

MOLECULE: Cn1ccnc1CNCCS(=O)(=O)c1cccc(Nc2ccc(-c3cccc(F)c3)cn2)c1
percent growth (%): 35

MOLECULE: O=C1[C@@H](Oc2ccccc2)[C@@H](c2ccc(Cl)cc2)N1CCn1cnc2c(NCc3ccccc3)ncnc21
percent growth (%): 112

MOLECULE: Cc1cc(C(=O)Nc2cnn(Cc3ccc(Cl)cc3Cl)c2)no1
percent growth (%): 97.5

MOLECULE: COc1ccc(OC(C)C(=O)Nc2ccc(Cl)cc2C)cc1 (stereo not given)
percent growth (%): 82.7

MOLECULE: C[C@H](C(N)=O)N1CCCC[C@H]1c1ccc(OCc2cccc(F)c2)cc1
percent growth (%): 63.4

MOLECULE: O=[N+]([O-])c1cn2c(n1)OC[C@@H](OCc1ccc(OC(F)(F)F)cc1)C2
percent growth (%): 90

MOLECULE: CCOc1ccccc1NC(C)C(=O)Nc1cc(C(F)(F)F)ccc1N1CCOCC1 (stereo not given)
percent growth (%): 109

MOLECULE: O=C(NCc1ccco1)N1CCN(Cc2ccc(Cl)s2)CC1
percent growth (%): 91.1

MOLECULE: CNc1snc(C)c1C(=O)NCCOc1ccc(OC)cc1
percent growth (%): 115

MOLECULE: O=C(Nc1c(O)cccc1-c1nc2c(C(=O)O)cccc2o1)c1cc(-c2ccccc2)on1
percent growth (%): 11.1

MOLECULE: Cc1nnc(NCc2cccc(Cl)c2)c2ccccc12
percent growth (%): 85.4

MOLECULE: COc1cccc(-c2nc3c(N4CCCC4)cccc3n2CC2CCCN2)n1 (stereo not given)
percent growth (%): 58.2

MOLECULE: Clc1ccc(-n2cc(COc3ccnc4ccccc34)nn2)cc1
percent growth (%): 77.9

MOLECULE: COc1cc(C2=NCCN2)ccc1-c1cn(-c2cccc(C3=NCCN3)c2)nn1
percent growth (%): 73

MOLECULE: CCOC(=O)NC(=O)c1ccsc1NC(=O)c1nc2ccccc2s1
percent growth (%): 5.08

MOLECULE: COc1ccc(-c2nnc3ccc(-c4cccc(C(C)C)c4)cn23)cc1OC
percent growth (%): 68

MOLECULE: CCN(CC)S(=O)(=O)c1ccc(Cl)c(C(=O)Nc2ccc3nc(C)sc3c2)c1
percent growth (%): 138

MOLECULE: CC1=NN(c2nc3ccccc3s2)C(=O)C1Cc1cccc2ccccc12 (stereo not given)
percent growth (%): 3.74

MOLECULE: COc1ccc(Cn2cnc3c(-c4ccco4)nc(Cl)nc32)cc1
percent growth (%): 102
